# MEASURED_TARGET: ABL1 (Homo sapiens (Human))
# Sequence (P00519 whole entry): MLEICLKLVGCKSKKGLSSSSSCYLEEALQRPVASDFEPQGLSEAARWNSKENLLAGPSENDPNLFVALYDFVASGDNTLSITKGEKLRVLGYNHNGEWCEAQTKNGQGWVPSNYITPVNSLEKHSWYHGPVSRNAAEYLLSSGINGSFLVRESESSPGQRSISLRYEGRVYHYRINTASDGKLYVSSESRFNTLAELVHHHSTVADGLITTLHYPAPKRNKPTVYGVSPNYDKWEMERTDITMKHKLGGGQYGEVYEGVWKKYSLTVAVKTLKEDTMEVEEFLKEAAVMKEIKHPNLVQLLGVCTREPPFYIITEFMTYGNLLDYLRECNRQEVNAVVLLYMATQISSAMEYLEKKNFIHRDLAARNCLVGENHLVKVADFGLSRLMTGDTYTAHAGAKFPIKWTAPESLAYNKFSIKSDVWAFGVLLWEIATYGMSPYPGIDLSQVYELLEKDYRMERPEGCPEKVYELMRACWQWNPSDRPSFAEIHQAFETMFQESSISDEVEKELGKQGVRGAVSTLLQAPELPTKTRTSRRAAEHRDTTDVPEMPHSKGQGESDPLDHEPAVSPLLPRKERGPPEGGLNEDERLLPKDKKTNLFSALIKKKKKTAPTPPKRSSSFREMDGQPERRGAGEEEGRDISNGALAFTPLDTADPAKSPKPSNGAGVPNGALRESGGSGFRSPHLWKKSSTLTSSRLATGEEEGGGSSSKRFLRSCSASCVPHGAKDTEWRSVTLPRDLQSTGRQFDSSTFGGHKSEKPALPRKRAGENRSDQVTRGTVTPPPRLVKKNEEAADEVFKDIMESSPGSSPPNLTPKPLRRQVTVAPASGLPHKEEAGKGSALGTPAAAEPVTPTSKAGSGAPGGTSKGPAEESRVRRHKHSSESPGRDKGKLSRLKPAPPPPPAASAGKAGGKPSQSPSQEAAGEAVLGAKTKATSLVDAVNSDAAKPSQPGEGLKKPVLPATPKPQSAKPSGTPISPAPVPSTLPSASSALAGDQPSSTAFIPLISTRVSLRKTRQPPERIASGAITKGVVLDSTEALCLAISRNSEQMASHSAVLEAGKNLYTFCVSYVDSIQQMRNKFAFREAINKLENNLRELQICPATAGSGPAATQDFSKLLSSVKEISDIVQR
# MEASUREMENT_DESCRIPTION: Caliper Mobility Shift kinase inhibition test
# Assay type: biochemical
# CONDITION_DESCRIPTION: 100 nM
PARAMETER_MEASURED: inhibitory rate on ABL1 (%)

INSERT INTO assay_data (compound, unit_abbrev, endpoint_value) VALUES
  ('Cc1cnc(Nc2ccc(N3CCN(C)CC3)cc2)nc1Nc1ccc2cn[nH]c2c1 [Compound 6g]', '%', 89.6);

a = Cc1cc2c(Nc3ccc4cn[nH]c4c3)nc(Nc3ccc(N4CCN(C)CC4)cc3)nc2s1 [Compound 3i]
b = Cc1cnc(Nc2ccc(N3CCN(C)CC3)cc2)nc1Nc1ccc2[nH]ccc2c1 [Compound 5a]
[in] Could you tell me which of these two has the smaller inhibitory rate on ABL1 figure? First: a Second: b Your answer should be the label attached to the chosen record.
[out] a
